FYI, the data here is from patent US20150203579A1.

# Kd annotations
Target: T1, recombinant cynomolgus monkey PD-1 expressed with a C-terminal myc-myc-hexahistidine tag (cynomolgus monkey (Macaca fascicularis))
T1 construct: monomeric; also called MfPD-1-MMH
T1 chain: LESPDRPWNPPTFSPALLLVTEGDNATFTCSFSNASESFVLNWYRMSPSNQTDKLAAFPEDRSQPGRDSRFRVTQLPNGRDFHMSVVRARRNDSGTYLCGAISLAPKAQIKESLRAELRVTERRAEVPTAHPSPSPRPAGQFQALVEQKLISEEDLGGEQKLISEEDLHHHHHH
Test: SPR, mAb captured, 25C;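 also: rates from fitting Biacore data for PD-1 binding to anti-PD-1 antibodies with a 1:1 model, KD computed as koff/kon and t½ as ln2/(60·koff)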
Please respond with the number in nM and leave the unit unwritten.

These recorded examples may help you get a feel for the data.
H1M7789N (antibody, mouse IgG1, V domains shown, Human variable regions, mouse IgG1 Fc) VH: EVQLLESGGGLVQPGGSLRLSCSASGFTFSSYTMNWVRQAPGKGLEWVSGISDTGGNTYYTDSVKGRFTVSRDNSKNTLSLQMNSLRAEDTAVYYCAKDQGGSYPYYFHYWGQGSLVTVSS VL: DIQMTQSPSSLSASVGDRVTITCRASQSISSYLIWYQQKPGTAPKFLIYAASSLQSGVPSRFSGCGSGTDFTLTISSLQPEDFATYYCQQSYSTPPITFGQGTRLEIK :: 7.89
H1M7800N (antibody, mouse IgG1, V domains shown, Human variable regions, mouse IgG1 Fc) VH: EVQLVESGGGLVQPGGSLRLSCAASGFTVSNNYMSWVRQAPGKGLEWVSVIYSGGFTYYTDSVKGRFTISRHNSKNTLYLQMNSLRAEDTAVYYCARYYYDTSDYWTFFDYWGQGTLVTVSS VL: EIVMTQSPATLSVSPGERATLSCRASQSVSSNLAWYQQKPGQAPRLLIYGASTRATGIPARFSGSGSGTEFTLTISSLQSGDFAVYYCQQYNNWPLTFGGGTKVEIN :: 176

// moving on: another record for Kd
Query (binder): H2aM7780N (antibody, mouse IgG2a, V domains shown, Human variable regions, mouse IgG2a Fc (H2aM prefix); also called H2M7780N) VH: QVQLVESGGGVVQSGRSLRLSCAASGFTFSSYGMHWVRQAPGKGLEWVAVIWYDGSNIYYSDSVKGRFTISRANSKNTLYLQMNSLRAEDTAVYYCARPGHWNYFFEYWGQGTLVTVSS VL: DIQMTQSPSSLSASVGDRVTITCRASQSINNYLNWYQQKPGKAPKLLIYTASSLQSGVPSRFSGSGSGTDFTLTISSLQPEDFATYYCQQSYSTPPLTFGQGTQLEIK ; field requested: Kd 31.5
